Test system: M. tuberculosis (PA-resistant)
Test: microbe, parasite or virus in culture
Type: cell-based, Mycobacterium tuberculosis
Conditions: Mycobacterium tuberculosis
Listed below: MIC values for each entry.
Write the answer as a number in µg/mL, unit excluded.

{"COMPOUND": "CC(=O)NC[C@H]1CN(c2ccc(-c3cnc(O[C@@H]4COc5nc([N+](=O)[O-])cn5C4)nc3)c(F)c2)C(=O)O1", "MEASUREMENT UNITS": "µg/mL", "MIC": 0.5}
{"COMPOUND": "CC(=O)NC[C@H]1CN(c2ccc(N3CCOCC3)c(F)c2)C(=O)O1 [Linezolid, linezolid, reference compound]", "MEASUREMENT UNITS": "µg/mL", "MIC": 0.5}

Please report the measured MIC for CC(=O)NC[C@H]1CN(c2ccc(-c3ccc(CO[C@@H]4COc5nc([N+](=O)[O-])cn5C4)cc3)c(F)c2)C(=O)O1
1
